TESTED SYSTEM: rat liver arginase (Rattus norvegicus)
ASSAY EXPLANATION: radioactive L-[guanidino-14C]arginine arginase assay (Example 3)
Assay type: biochemical
Set-up: made in house
Procedure: Assays were performed in 100 micromolar MnCl2, 100 millimolar CHES-NaOH (pH 9.0). […] [^14C]-Urea was separated from non-reacted L-[guanidino-^14 C]arginine by treatment with 200 microliters of a 1:1 (vol/vol) slurry of DOWEX™ 50 W-X8 in water, and quantitated by adding 200 microliters of the supernatant from the DOWEX™ treatment to 3 milliliters of LIQUISCINT™ (National Diagnostics) for liquid scintillation counting in a Beckman LS5000CE counter.
pKi: −log10 of the molar value.
MEASURED PROPERTY: pKi

>  <COMPOUND>
N[C@@H](CSCCB(O)O)C(=O)O [compound 15, S-(2-boronoethyl)-L-cysteine]

>  <MEASURED PROPERTY>
pKi

>  <QUANTITATIVE READOUT>
6.15

$$$$

====

TESTED SYSTEM: arginase (Rattus norvegicus, UniProt P07824)
ASSAY EXPLANATION: biochemical
CONDITION DESCRIPTION: Kd from competition binding experiments using N-hydroxyarginine, pH 7.5 and pH 9.0
pKd: −log10 of the molar value.
MEASURED PROPERTY: pKd

>  <MOLECULE>
N[C@@H](CCCCB(O)O)C(=O)O [compound 7, 2(S)-amino-6-boronohexanoic acid]

>  <MEASURED PROPERTY>
pKd

>  <RESULT>
≥ 7.00

$$$$

====

TESTED SYSTEM: liver arginase activity
ASSAY EXPLANATION: arginase activity in liver homogenate
CONDITION DESCRIPTION: liver; read-out: IC50 for inhibition of arginase activity, liver homogenate
pIC50: −log10 of the molar value.
Each item that follows carries a reported pIC50.

>  <MOLECULE>
N=C(NO)NCCC[C@H](N)C(=O)O [N-hydroxyarginine, N^ω-hydroxy-L-arginine]

>  <pIC50>
5.62

$$$$
>  <MOLECULE>
N[C@@H](CCCCB(O)O)C(=O)O [compound 7, 2(S)-amino-6-boronohexanoic acid]

>  <pIC50>
6.36

$$$$

====

TESTED SYSTEM: IAS arginase activity
ASSAY EXPLANATION: arginase activity in IAS homogenate
CONDITION DESCRIPTION: arginine fixed at Km, assuming competitive inhibition; read-out: estimated Ki, IAS arginase activity
pKi: −log10 of the molar value.
MEASURED PROPERTY: pKi

>  <COMPOUND>
N[C@@H](CCCCB(O)O)C(=O)O [compound 7, 2(S)-amino-6-boronohexanoic acid]

>  <QUANTITATIVE READOUT>
7.30

$$$$

====

TESTED SYSTEM: rectum arginase activity
ASSAY EXPLANATION: arginase activity in rectum homogenate
CONDITION DESCRIPTION: arginine fixed at Km, assuming competitive inhibition; read-out: estimated Ki, rectum arginase activity
pKi: −log10 of the molar value.
MEASURED PROPERTY: pKi

>  <COMPOUND>
N[C@@H](CCCCB(O)O)C(=O)O [compound 7, 2(S)-amino-6-boronohexanoic acid]

>  <QUANTITATIVE READOUT>
7.59

$$$$

====

TESTED SYSTEM: rat liver arginase (Rattus norvegicus, UniProt P07824)
Sequence (P07824 1-323): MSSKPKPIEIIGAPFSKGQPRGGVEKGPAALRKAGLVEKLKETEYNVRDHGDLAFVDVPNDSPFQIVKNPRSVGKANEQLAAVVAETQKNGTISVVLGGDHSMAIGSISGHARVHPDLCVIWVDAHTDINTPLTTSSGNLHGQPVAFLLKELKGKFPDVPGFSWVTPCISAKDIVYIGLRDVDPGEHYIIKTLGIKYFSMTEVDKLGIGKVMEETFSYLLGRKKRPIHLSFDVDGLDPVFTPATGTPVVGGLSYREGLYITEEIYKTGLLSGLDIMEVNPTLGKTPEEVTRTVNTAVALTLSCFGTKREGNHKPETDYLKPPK

>  <MOLECULE>
N[C@@H](CCCCB(O)O)C(=O)O [compound 7, 2(S)-amino-6-boronohexanoic acid]

>  <IC50>
0.8 µM

$$$$
>  <MOLECULE>
N=C(NO)NCCC[C@H](N)C(=O)O [N-hydroxyarginine, N^ω-hydroxy-L-arginine]

>  <IC50>
80 µM

$$$$

====

TESTED SYSTEM: rat liver arginase (Rattus norvegicus, UniProt P07824)
Sequence (P07824 1-323): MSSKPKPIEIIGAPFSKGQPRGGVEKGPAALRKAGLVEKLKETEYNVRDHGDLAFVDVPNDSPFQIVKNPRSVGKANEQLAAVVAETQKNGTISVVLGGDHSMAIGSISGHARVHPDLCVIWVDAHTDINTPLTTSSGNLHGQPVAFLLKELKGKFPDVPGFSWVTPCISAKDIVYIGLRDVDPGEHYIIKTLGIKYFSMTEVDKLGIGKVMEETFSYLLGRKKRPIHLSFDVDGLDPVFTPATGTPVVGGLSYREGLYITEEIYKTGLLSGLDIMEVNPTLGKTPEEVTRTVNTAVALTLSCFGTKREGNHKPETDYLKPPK
ASSAY EXPLANATION: radioactive L-[guanidino-14C]arginine arginase assay (Example 3)
Type: biochemical
Design: made in house
CONDITION DESCRIPTION: [14C-guanidino]-L-arginine assay, low inhibitor concentrations, assuming competitive inhibition; read-out: Ki (apparent)
MEASURED PROPERTY: Ki

>  <COMPOUND>
N[C@@H](CCCCB(O)O)C(=O)O [compound 7, 2(S)-amino-6-boronohexanoic acid]

>  <RESULT>
100 nM

$$$$

====

TESTED SYSTEM: brain arginase activity
ASSAY EXPLANATION: arginase activity in brain homogenate
CONDITION DESCRIPTION: brain; read-out: IC50 for inhibition of arginase activity, brain homogenate
pIC50: −log10 of the molar value.

>  <COMPOUND>
N=C(NO)NCCC[C@H](N)C(=O)O [N-hydroxyarginine, N^ω-hydroxy-L-arginine]

>  <TESTED SYSTEM>
brain arginase activity

>  <pIC50>
4.40

$$$$

====

TESTED SYSTEM: liver arginase activity
ASSAY EXPLANATION: arginase activity in liver homogenate
CONDITION DESCRIPTION: arginine fixed at Km, assuming competitive inhibition; read-out: estimated Ki, liver arginase activity
Description: Tissue samples of the opossum internal anal sphincter muscle (IAS), adjoining rectal tissue, liver, and brain were homogenized using an ULTRATURRAX™ tissue homogenizer (Tekamr, Cincinnati, Ohio) in a solution comprising 10 millimolar Tris-HCl, 150 millimolar KCl, and 25 millimolar MnCl2, at pH 7.4. […] Arginase activity in tissue homogenates was evaluated using the radioactive L-[guanidino^14C]arginine assay of Rüegg and Russell (1980, Anal. Biochem. 102:206-212). […]
pKi: −log10 of the molar value.
MEASURED PROPERTY: pKi

>  <MOLECULE>
N[C@@H](CCCCB(O)O)C(=O)O [compound 7, 2(S)-amino-6-boronohexanoic acid]

>  <TESTED SYSTEM>
liver arginase activity

>  <QUANTITATIVE READOUT>
6.72

$$$$

====

TESTED SYSTEM: rectum arginase activity
ASSAY EXPLANATION: arginase activity in rectum homogenate
CONDITION DESCRIPTION: rectum; read-out: IC50 for inhibition of arginase activity, rectum homogenate
pIC50: −log10 of the molar value.
MEASURED PROPERTY: pIC50

>  <COMPOUND>
N[C@@H](CCCCB(O)O)C(=O)O [compound 7, 2(S)-amino-6-boronohexanoic acid]

>  <MEASURED PROPERTY>
pIC50

>  <QUANTITATIVE READOUT>
7.30

$$$$
>  <COMPOUND>
N=C(NO)NCCC[C@H](N)C(=O)O [N-hydroxyarginine, N^ω-hydroxy-L-arginine]

>  <MEASURED PROPERTY>
pIC50

>  <QUANTITATIVE READOUT>
4.38

$$$$

====

TESTED SYSTEM: IAS arginase activity
ASSAY EXPLANATION: arginase activity in IAS homogenate
CONDITION DESCRIPTION: IAS; read-out: IC50 for inhibition of arginase activity, IAS homogenate
pIC50: −log10 of the molar value.
Below, each entry is listed alongside its reported pIC50.
MEASURED PROPERTY: pIC50

>  <COMPOUND>
N[C@@H](CCCCB(O)O)C(=O)O [compound 7, 2(S)-amino-6-boronohexanoic acid]

>  <MEASURED PROPERTY>
pIC50

>  <QUANTITATIVE READOUT>
7.00

$$$$
>  <COMPOUND>
N=C(NO)NCCC[C@H](N)C(=O)O [N-hydroxyarginine, N^ω-hydroxy-L-arginine]

>  <MEASURED PROPERTY>
pIC50

>  <QUANTITATIVE READOUT>
4.60

$$$$
